- assay_text: VP16 counterscreen qHTS for inhibitors of ROR gamma transcriptional activity
- condition_details: Drosophila S2 Gal4-VP16 UAS-luciferase, luminescence, 20 h; series mostly up to 53.6 µM
Hit rate of the full screen: of about 310,000 compounds, about 11,000 (3.5%) were called active. Another 8% or so got no clear call; they are omitted. Calls come from the whole dose curve; as a rule, active = well fitted inhibition curve with a large enough effect; inconclusive = small, poorly fitted or top-dose-only effect, or effect the other way; inactive = flat fitted curve, though single readings scatter. Only a selection was taken, and actives are over-represented in it overall.
Reply using exactly one outcome from 1.0 (active), 0.0 (inactive)

Cc1cccc(CNS(=O)(=O)c2ccc(-c3cnc(C4CC4)o3)cc2)c1 ... 0.0

Task: Returns: the outcome recorded for Oc1ccc(-n2nnnc2SCc2c(F)cccc2Cl)cc1 in this assay.
Output: 0.0

Task: Next up: CC(=O)NC(=O)c1ccccc1O
Output: 0.0

Task: Next up: Cc1ccc(O)c(NC(=O)c2cc(-c3ccco3)on2)c1
Output: 0.0

Task: Next up: C/C(=N\NC(=O)c1ccoc1C)c1ccccc1O
Output: 1.0

Task: Next up: Cn1c(=O)oc2cc(S(=O)(=O)NCCC(=O)NCc3ccccc3Cl)ccc21
Output: 0.0

* * *

- assay_text: VP16 counterscreen qHTS for inhibitors of ROR gamma transcriptional activity
- condition_details: Drosophila S2 Gal4-VP16 UAS-luciferase, luminescence, 20 h; series mostly up to 53.6 µM
Hit rate of the full screen: of about 310,000 compounds, about 11,000 (3.5%) were called active. Another 8% or so got no clear call; they are omitted. Calls come from the whole dose curve; as a rule, active = well fitted inhibition curve with a large enough effect; inconclusive = small, poorly fitted or top-dose-only effect, or effect the other way; inactive = flat fitted curve, though single readings scatter. The full list was thinned out, with actives kept by preference.
Reply using exactly one outcome from active, inactive

Examples with answers:
Cc1cc(C)cc(C(=O)OCC(=O)NCCNC(=O)COC(=O)c2cc(C)cc(C)c2)c1 ... active
O=C(/C=C/c1ccccc1[N+](=O)[O-])NCC1CCCO1 (stereo not given) ... inactive

Task: Returns: the outcome recorded for CCN(CC)S(=O)(=O)c1ccc(-c2cn3ccc(C)cc3n2)cc1 in this assay.
Output: inactive

Task: Next up: CCOc1cc2[nH]c(=S)n(Cc3ccc(C(=O)N4CCN(C)CC4)cc3)c(=O)c2cc1OCC
Output: inactive

Task: Next up: COCCc1nn2c(=O)cc(COC(=O)c3cc(OC)c(OC)c(OC)c3)nc2s1
Output: inactive

* * *

- assay_text: VP16 counterscreen qHTS for inhibitors of ROR gamma transcriptional activity
- condition_details: Drosophila S2 Gal4-VP16 UAS-luciferase, luminescence, 20 h; series mostly up to 53.6 µM
The whole screen tested about 310,000 compounds, of which about 11,000 (3.5%) were called active. Roughly 8% stayed inconclusive and do not appear here. Calls follow the shape of the dose curve; as a rule, active = well fitted inhibition curve with a large enough effect; inconclusive = small, poorly fitted or top-dose-only effect, or effect the other way; inactive = flat fitted curve, though single readings scatter. For the sample, actives were picked, then their nearest neighbours and some compounds at random.
Reply using exactly one outcome from active, inactive

O=C(NCCN1CCCC(O)C1)c1cc(COc2c(F)cccc2F)on1 (stereo unspecified) ... inactive
O=S(=O)(c1cccc(Cn2nnc(-c3ccc(F)cc3)n2)c1)N1CCOCC1 ... active
O=S(=O)(c1cccc(-c2nnc3n2CCCCC3)c1)N1CCOCC1 ... inactive
CCOc1ccc(C(=O)COC(=O)c2ccc(-n3cnnn3)cc2)cc1 ... inactive
Nc1nc(CC(=O)CSc2ccc(Cl)cc2)nc(Nc2ccc(F)cc2)n1 ... active

Task: Returns: the outcome recorded for COc1cccc(CNc2ncc(-c3ccccc3)n2C)c1 in this assay.
Output: inactive

Task: Next up: COC(=O)c1cccc(C(=O)N2CCC(CCC(=O)NCc3ccc(F)cc3)CC2)c1
Output: inactive

* * *

- assay_text: VP16 counterscreen qHTS for inhibitors of ROR gamma transcriptional activity
- condition_details: Drosophila S2 Gal4-VP16 UAS-luciferase, luminescence, 20 h; series mostly up to 53.6 µM
Screen size: about 310,000 compounds; about 11,000 (3.5%) were called active. About 8% were inconclusive and are not listed. Calls come from the whole dose curve; as a rule, active = well fitted inhibition curve with a large enough effect; inconclusive = small, poorly fitted or top-dose-only effect, or effect the other way; inactive = flat fitted curve, though single readings scatter. Only a selection was taken, and actives are over-represented in it overall.
Reply using exactly one outcome from active, inactive

Cc1cc(C(=O)NNC(=S)Nc2ccccc2C)cs1 ... inactive
S=C(NNC(=S)NC1CC2CCC1C2)NC1CC2C=CC1C2 (stereo unspecified) ... inactive
S=C(NNC(=S)NC1CC2C=CC1C2)NC1CC2C=CC1C2 (stereo unspecified) ... inactive
Cc1c(CN2CC[C@@H](N3CCN(c4ccccn4)CC3)[C@H](O)C2)[nH]c2ccc(F)cc12 ... inactive
Cc1ccc(NC(=S)NCc2ccccc2Cl)c(C)c1 ... active

Next, consider the following molecule.
Task: Returns: the outcome recorded for Cc1ccccc1N/C(SCc1ccc(Cl)cc1)=C(/C#N)C(N)=O in this assay.
Output: inactive

* * *

- assay_text: VP16 counterscreen qHTS for inhibitors of ROR gamma transcriptional activity;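 note: Gal4-VP16 expression switched on by copper sulfate through the metallothionein promoter; nearly all actives have a fitted effect of over 50% in size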
- condition_details: Drosophila S2 Gal4-VP16 UAS-luciferase, luminescence, 20 h; series mostly up to 53.6 µM
Out of some 310,000 compounds screened, about 11,000 (3.5%) were called active. About 8% were inconclusive and are not listed. Calls come from the whole dose curve; as a rule, active = well fitted inhibition curve with a large enough effect; inconclusive = small, poorly fitted or top-dose-only effect, or effect the other way; inactive = flat fitted curve, though single readings scatter. Shown is part of a subset that was picked to be rich in actives.
Reply using exactly one outcome from T (active), F (inactive)

Examples with answers:
O=C(Nc1ccccc1)c1nnsc1S(=O)(=O)c1ccc(Cl)cc1 ... T
CCc1cc(=O)oc2c(C)c(OCC(=O)N3CC[C@@]4(O)CCCC[C@H]4C3)ccc12 ... F
CC(=O)Nc1cc(C(=O)O)ccc1S(=O)(=O)c1ccc(Cl)cc1 ... F

Task: Returns: the outcome recorded for COCCCNC(=S)NC(=O)c1ccc([N+](=O)[O-])cc1 in this assay.
Output: T

Task: Next up: O=C(NC(=S)Nc1ccc(NC(=O)c2cccs2)cc1)c1ccc([N+](=O)[O-])cc1
Output: F

* * *

- assay_text: VP16 counterscreen qHTS for inhibitors of ROR gamma transcriptional activity;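 note: Gal4-VP16 expression switched on by copper sulfate through the metallothionein promoter; nearly all actives have a fitted effect of over 50% in size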
- condition_details: Drosophila S2 Gal4-VP16 UAS-luciferase, luminescence, 20 h; series mostly up to 53.6 µM
Among all 310,000 compounds or so, about 11,000 (3.5%) were called active. Inconclusive results (about 8%) are left out. Calls follow the shape of the dose curve; as a rule, active = well fitted inhibition curve with a large enough effect; inconclusive = small, poorly fitted or top-dose-only effect, or effect the other way; inactive = flat fitted curve, though single readings scatter. Only a selection was taken, and actives are over-represented in it overall.
Reply using exactly one outcome from class 1 for active, class 0 for inactive

CCC1(C)Cc2c(sc3nc(SC)[nH]c(=O)c23)CO1 (stereo not given) ... class 0
CCC1(C)Cc2c(sc3nnn(CC(=O)Nc4ccc(Cl)cc4)c(=O)c23)CO1 (stereo not given) ... class 0
Cc1cc(NC(=O)CCC(=O)N(Cc2ccccc2)C(C(=O)NC2CCCC2)c2ccc(C)o2)no1 (stereo not given) ... class 0
CCC1(C)Cc2c(sc3[nH]c(=S)n(Cc4ccccc4)c(=O)c23)CO1 (stereo not given) ... class 1

Next, consider the following compound.
Task: Returns: the outcome recorded for Oc1ccccc1C=NC1CCCCC1N=Cc1ccccc1O (stereo not given) in this assay.
Output: class 0

* * *

- assay_text: VP16 counterscreen qHTS for inhibitors of ROR gamma transcriptional activity;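 note: Gal4-VP16 expression switched on by copper sulfate through the metallothionein promoter; nearly all actives have a fitted effect of over 50% in size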
- condition_details: Drosophila S2 Gal4-VP16 UAS-luciferase, luminescence, 20 h; series mostly up to 53.6 µM
Out of some 310,000 compounds screened, about 11,000 (3.5%) were called active. Roughly 8% stayed inconclusive and do not appear here. The call rests on the fitted dose curve; in most records, active means well fitted inhibition curve with a large enough effect; inconclusive means small, poorly fitted or top-dose-only effect, or effect the other way; inactive means flat fitted curve, though single readings scatter. The full list was thinned out, with actives kept by preference.
Reply using exactly one outcome from 1.0 = active, 0.0 = inactive

Examples with answers:
O=C(O)/C=C/c1ccc2c(c1)OCCO2 ... 0.0
CCn1c(=S)sc2c(=O)n(CC(=O)Nc3cccc(Br)c3)c(C)nc21 ... 0.0
COc1cccc(OC)c1C(=O)NC(=S)Nc1ccc(N2CCOCC2)c(Cl)c1 ... 0.0
O=[N+]([O-])c1ccc(N(CCO)Cc2ccccc2)c([N+](=O)[O-])c1 ... 0.0
CC(=O)c1ccc2c(c1)OCCOCCOc1ccc(C(C)=O)cc1OCCOCCO2 ... 0.0

Task: Returns: the outcome recorded for CCOc1ccc(S(=O)(=O)N2CCCC(C(=O)N3CCC(C(N)=O)CC3)C2)cc1Cl (stereo unspecified) in this assay.
Output: 0.0

Task: Next up: Cc1nc2sccn2c(=O)c1S(=O)(=O)NCCc1ccccc1
Output: 0.0

Task: Next up: CCOc1ccc(C(=O)NC(=S)Nc2ccc(N3CCOCC3)c(Cl)c2)cc1[N+](=O)[O-]
Output: 1.0

* * *

- assay_text: VP16 counterscreen qHTS for inhibitors of ROR gamma transcriptional activity;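 note: Gal4-VP16 expression switched on by copper sulfate through the metallothionein promoter; nearly all actives have a fitted effect of over 50% in size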
- condition_details: Drosophila S2 Gal4-VP16 UAS-luciferase, luminescence, 20 h; series mostly up to 53.6 µM
- Experimental: NIH Molecular Libraries Probe Production Network [MLPCN] NIH Chemical Genomics Center [NCGC] Assay Provider: Dan Littman, New York University […] For screening, 600 cells in 4 uL/well were dispensed into white solid 1536-well plates (Grenier) using a solenoid-based dispenser. […] After addition of 1.5 uL Photinus luciferase detection reagent, the plates were incubated 10 min at ambient temperature and then read by a ViewLux (Perkin Elmer) to detect luminescence.
Among all 310,000 compounds or so, about 11,000 (3.5%) were called active. Inconclusive results (about 8%) are left out. Calls come from the whole dose curve; as a rule, active = well fitted inhibition curve with a large enough effect; inconclusive = small, poorly fitted or top-dose-only effect, or effect the other way; inactive = flat fitted curve, though single readings scatter. Shown is part of a subset that was picked to be rich in actives.
Reply using exactly one outcome from true for active, false for inactive

CCc1ccc(-n2c(=S)sc3c(=O)n(-c4ccccc4OC)c(=S)[nH]c32)cc1 ... false
COc1ccc(CSc2nnnn2-c2ccc(O)cc2)cc1F ... false
CC(C)(C)c1ccc(Cn2nnc3c(=O)[nH]c(C4CCCN(C(=O)c5ccco5)C4)nc32)cc1 (stereo unspecified) ... false
COc1ccc(-c2nnc(NC(=O)CS(=O)(=O)c3ccc(Cl)cc3)o2)c(OC)c1 ... false

Task: Returns: the outcome recorded for CCCSc1nc2sc3c(c2c(=O)n1-c1ccc(OC)cc1)CCN(C)C3 in this assay.
Output: false

Task: Next up: COc1cccc(-c2nnc(NC(=O)c3ccc(S(=O)(=O)N(CC(C)C)CC(C)C)cc3)o2)c1
Output: true
